Value source: patent US20180168208A1

System Under Test: T1R1/T1R3 receptor (Felis catus, UniProt E3UMS2)
Method Description: cell-based
Format: cell-based
Setup Conditions: + Alanine; Table 17
# Max resp % of IMP + Alanine listing for each entry below

Worked cases, answers included:
{"Compound": "CC1CCCC(NC(=O)c2ccc3c(c2)OCO3)C1C (stereo not shown)", "Max resp % of IMP + Alanine": "18.1 % of IMP"}
{"Compound": "COc1ccc(/C=C/C(=O)NC2CCCCC2C)cc1 (stereo not shown)", "Max resp % of IMP + Alanine": "63.2 % of IMP"}
{"Compound": "O=C(NCCc1ccccc1)C(=O)NCc1cccnc1", "Max resp % of IMP + Alanine": "30.2 % of IMP"}

Next compound, Max resp % of IMP + Alanine to be filled in.
-- ask Give Max resp % of IMP + Alanine (T1R1/T1R3 receptor (Felis catus, UniProt E3UMS2)) of the following compound: CCC(CC)NC(=O)c1ccc(OC)c(OC)c1 [3,4-dimethoxy-N-(pentan-3-yl)benzamide]
-- reply 43.9 % of IMP
